- measurement-notes: Pharmacokinetics of LN002 in rat plasma after single intravenous injection or oral gavage
- Type: in vivo, Sprague–Dawley (SD) rats
- condition-summary: both sexes, Sprague-Dawley, rat, iv; plasma, i.v. 1 mg/kg, rats, n = 6
- Procedure: A total of 24 SD rats, half for each sex, were randomly distributed into four groups and used in the plasma PK study. Heparin sodium was used to prevent blood clotting. Groups 1, 2, and 3 were single-dose oral administration groups, and the administered doses were 100, 200, and 400 mg/kg, respectively. […] The analytes were detected using a UV detector at 333 nm. […]
measured-endpoint: Tmax (min)
Write down the numeric answer in min and omit the unit.

Form field Tmax, entry `N#C/C(=C\c1c[nH]nc1-c1ccccc1)c1nn(-c2ccccc2)c(N)c1C#N` : 45
